TARGET_DESC: human V2 receptor (Homo sapiens, UniProt P30518)
Sequence (P30518 whole entry): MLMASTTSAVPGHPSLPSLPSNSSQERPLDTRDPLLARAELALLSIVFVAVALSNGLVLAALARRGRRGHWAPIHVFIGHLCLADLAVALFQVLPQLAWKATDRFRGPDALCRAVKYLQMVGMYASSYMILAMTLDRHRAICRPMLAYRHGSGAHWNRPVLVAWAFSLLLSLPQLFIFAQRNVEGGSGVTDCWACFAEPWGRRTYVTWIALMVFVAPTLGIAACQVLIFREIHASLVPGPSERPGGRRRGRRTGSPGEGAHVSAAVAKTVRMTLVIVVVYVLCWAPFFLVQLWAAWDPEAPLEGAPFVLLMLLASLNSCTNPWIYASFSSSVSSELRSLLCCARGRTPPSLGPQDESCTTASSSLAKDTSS
ASSAY_PROCEDURE: Cellular in vitro test for determination of the vasopressin receptor activity (aequorin luminescence, CHO cells), human V2
CONDITION_NOTES: cell line transfected with the human V2 receptor, antagonism of [Arg8]-vasopressin, read-out: IC50 hV2
pIC50: −log10 of the molar value.
QUANTITY: pIC50

(P) CSc1ccccc1CNC(=O)Cn1nc(-c2ccc(Cl)cc2)n(Cc2ccccc2F)c1=O [Example 394]
(Q) COc1cc(Cl)ccc1-c1nn(CC(=O)NCc2ccccc2C(F)(F)F)c(=O)n1Cc1ccccc1F [Example 227]
Kindly identify the item with the lower pIC50 figure among these two: P and Q Respond using the label that marks the chosen record.
Q
(Q: 7.43, P: 7.72)
